# target-system: Kinesin-like protein KIF18A (Homo sapiens, UniProt Q8NI77)
# Sequence (Q8NI77 whole entry, the tested form may be a part): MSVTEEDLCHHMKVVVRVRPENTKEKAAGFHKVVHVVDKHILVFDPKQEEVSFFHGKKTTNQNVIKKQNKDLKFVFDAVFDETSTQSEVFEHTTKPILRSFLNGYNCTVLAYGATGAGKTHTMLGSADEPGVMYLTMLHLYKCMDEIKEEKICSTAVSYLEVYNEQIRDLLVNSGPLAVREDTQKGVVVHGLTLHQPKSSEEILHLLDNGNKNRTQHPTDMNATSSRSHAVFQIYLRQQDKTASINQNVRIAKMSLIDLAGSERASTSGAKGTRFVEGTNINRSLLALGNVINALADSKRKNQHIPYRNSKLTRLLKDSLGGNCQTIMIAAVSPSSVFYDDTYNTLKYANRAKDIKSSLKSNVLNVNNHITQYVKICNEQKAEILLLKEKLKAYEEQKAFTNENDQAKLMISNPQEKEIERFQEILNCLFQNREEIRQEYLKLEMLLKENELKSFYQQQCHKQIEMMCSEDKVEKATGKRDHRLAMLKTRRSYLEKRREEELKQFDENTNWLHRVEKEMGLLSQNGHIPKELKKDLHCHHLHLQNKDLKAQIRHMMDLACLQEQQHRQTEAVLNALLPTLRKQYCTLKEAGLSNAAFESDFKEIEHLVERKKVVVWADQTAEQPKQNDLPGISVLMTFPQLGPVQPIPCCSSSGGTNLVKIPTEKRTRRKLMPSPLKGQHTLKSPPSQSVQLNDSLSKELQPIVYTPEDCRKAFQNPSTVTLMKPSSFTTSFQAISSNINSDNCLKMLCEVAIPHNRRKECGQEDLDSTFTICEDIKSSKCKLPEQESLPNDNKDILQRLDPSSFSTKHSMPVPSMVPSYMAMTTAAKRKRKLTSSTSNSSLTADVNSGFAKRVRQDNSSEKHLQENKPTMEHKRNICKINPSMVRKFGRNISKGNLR
# assay-info: Inhibition of recombinant His-tagged human KIF18A (1 to 467 residues) expressed in baculovirus expression system assessed as inhibition of microtubule-stimulated ATPase activity preincubated for 15 mins followed by ATP addition and further incubated for 15 mins and measured after 40 mins by ADP-Glo reagent based assay
pIC50: −log10 of the molar value.
readout-type: pIC50

Below: 3 compounds and their reported pIC50.
INSERT INTO results (compound, readout_type, observed_result) VALUES
  ('CCS(=O)(=O)Cc1ccc(C(=O)Nc2cccc(S(=O)(=O)NC(C)(C)C)c2)c(N2CCC3(CC2)CC3)c1', 'pIC50', 7.12),
  ('CC(C)(C)NS(=O)(=O)c1cccc(NC(=O)c2ccc(CS(=O)(=O)C(C)(C)C)cc2N2CCC3(CC2)CC3)c1', 'pIC50', 7.12),
  ('CC(C)(CO)Nc1cccc(NC(=O)c2ccc(S(=O)(=O)NC3(C)COC3)cc2N2CCC3(CC2)CC3)c1', 'pIC50', 6.70);

a: CC(C)(C)NS(=O)(=O)c1cccc(NC(=O)c2ccc(NS(=O)(=O)CCO)cc2N2CCC3(CC2)CC3)c1
b: C[C@@H]1CN(c2cc(F)cc(NC(=O)c3ccc(NS(=O)(=O)CCO)cc3N3CCC4(CC3)CC4)c2)CCO1
Query block: Short answer wanted: higher pIC50, a or b ? Choose, then provide that item's label.
Result block: a
